// log10 of GI50 lookup, one value per entry
# Test system: SN12C
# Method: Cytotoxicity against human SN12C cells
# Format: functional
Recall that a logarithmic scale is used here: each number is log10 of GI50 in nM.

INSERT INTO assay_data (molecule, reading) VALUES
  ('O=C1c2ccc(O)cc2-c2c1c1ccc([N+](=O)[O-])cc1c(=O)n2CCCN1CCOCC1', 1.56);

Please examine the following record next.
Need log10 of GI50, item O=C1c2c(O)cccc2-c2c1c1ccc([N+](=O)[O-])cc1c(=O)n2CCCn1ccnc1
2.23

====

Each item that follows carries a reported GI50.
# Method: Cytotoxicity against human UACC62 cells
# Format: functional
# Experimental Setup: UACC-62
// return numeric value only (unit: nM, not printed)

Guide cases for GI50, answers given:
INSERT INTO assay_data (molecule, reading) VALUES
  ('O=C1c2ccc(O)cc2-c2c1c1ccc([N+](=O)[O-])cc1c(=O)n2CCCN1CCOCC1', 20),
  ('COc1cc2c(cc1O)-c1c(c3ccc([N+](=O)[O-])cc3c(=O)n1CCCN)C2=O', 950);

Looking for the measured GI50 of O=C1c2c(O)cccc2-c2c1c1ccc([N+](=O)[O-])cc1c(=O)n2CCCn1ccnc1 , can you help?
180

Please look up its GI50: COc1cc2c(cc1O)-c1c(c3ccc([N+](=O)[O-])cc3c(=O)n1CCCN1CCOCC1)C2=O
39

Request the reported GI50 associated with NCCCn1c2c(c3ccc([N+](=O)[O-])cc3c1=O)C(=O)c1cc(O)ccc1-2
41
